# key: entry, value: Cmax
- assay: Cmax in ferret at 3 mg/kg, po
- Assay type: ADME, organism-based, Mustela putorius furo
- Design: dose 3 mg/kg, route oral
- stated.conditions: in vivo
Phrase the answer as number then unit, nothing more needed.

Reference set (2 entries):
Q. I have this molecule here, `CCCCNc1nc(N)c2nc(O)n(Cc3ccc(Cl)nc3)c2n1` , and I need its recorded Cmax.
A. 20.1 ng/mL

Q. Another: `CCCCNc1nc(N)c2nc(O)n(Cc3ccc(C)nc3)c2n1`
A. 20.8 ng/mL

Next:
Q. Bench note: what Cmax did `CCCCNc1nc(N)c2nc(O)n(Cc3ccc(OC)nc3)c2n1` show?
A. 109 ng/mL

Q. Now the molecule CCOCc1nc2c(N)nc3ccccc3c2n1CC(C)(C)O [RESIQUIMOD]
A. 1180 ng/mL
